Assay: Selectivity index, ratio of CC50 african green monkey Vero cells to IC90 for Mycobacterium tuberculosis H37Rv ATCC 27294
Assay type: toxicity, cell-based
Property: selectivity ratio
No unit in the answer, please; the number alone is enough.

Give the measured selectivity ratio of Cc1cc(=O)oc2c(C)c3occ(C=C4C(=O)NC(=O)NC4=O)c(=O)c3cc12 .
2.41
